This collection of values is drawn from the supplement of paper PMC4862054.

- Tested on: CAL-148
- assay.method.text: normalised viability (% of control), CellTiter-Blue; higher = more viable cells (about 100 = DMSO control)
- measurement.parameters: 30 nM; incubation time: 72 h
Listing of entries alongside the reported normalised viability.

{"compound": "COc1cc(Nc2ncc(F)c(Nc3ccc4c(n3)NC(=O)C(C)(C)O4)n2)cc(OC)c1OC", "units.symbol": "%", "normalised viability": 100}
{"compound": "CN1CCN(c2ccc3nc(-c4c(N)c5c(F)cccc5[nH]c4=O)[nH]c3c2)CC1", "units.symbol": "%", "normalised viability": 95.5}
{"compound": "COC(=O)C[C@](O)(CCCC(C)(C)O)C(=O)O[C@@H]1C(OC)=C[C@]23CCCN2CCc2cc4c(cc2[C@H]13)OCO4 [Omacetaxine mepesuccinate]", "units.symbol": "%", "normalised viability": 26}
{"compound": "C#Cc1cccc(Nc2ncnc3cc(OC)c(OCCCCCCC(=O)NO)cc23)c1", "units.symbol": "%", "normalised viability": 89.8}
{"compound": "O=c1[nH]cc(F)c(=O)[nH]1", "units.symbol": "%", "normalised viability": 109}

---

- System: BT-474
- assay.method.text: drug sensitivity score (DSS), CellTox Green (DSS (AUC-based score)); higher = stronger drug effect (viability inhibition or cytotoxicity); extreme values may be limits of the assay
- measurement.parameters: incubation time: 72 h

{"compound": "CN(c1ccccc1CNc1nc(Nc2ccc3c(c2)CC(=O)N3)ncc1C(F)(F)F)S(C)(=O)=O", "drug sensitivity score": 0}
{"compound": "CC(C)C[C@H](NC(=O)[C@H](Cc1ccccc1)NC(=O)c1cnccn1)B(O)O [Bortezomib]", "drug sensitivity score": 6.53}
{"compound": "CC(=O)O[C@H]1C(=O)[C@@]2(C)[C@H]([C@H](OC(=O)c3ccccc3)[C@]3(O)C[C@H](OC(=O)[C@H](O)[C@@H](NC(=O)c4ccccc4)c4ccccc4)C(C)=C1C3(C)C)[C@]1(OC(C)=O)CO[C@@H]1C[C@@H]2O [Paclitaxel]", "drug sensitivity score": 12.7}
{"compound": "COc1ccc(C2=N[C@@H](c3ccc(Cl)cc3)[C@@H](c3ccc(Cl)cc3)N2C(=O)N2CCNC(=O)C2)c(OC(C)C)c1 [Nutlin-3]", "drug sensitivity score": 0}
{"compound": "COc1c(C)cnc(Cn2cnc3c(Cl)nc(N)nc32)c1C [BIIB021]", "drug sensitivity score": 4.79}
{"compound": "C[C@@]1(C(=O)Nc2ccc(F)nc2)CCCN1c1nc(Nc2cc(C3CC3)n[nH]2)c2cccn2n1", "drug sensitivity score": 0}
{"compound": "O=C(c1ccc(OCCN2CCCCC2)cc1)c1c(-c2ccc(O)cc2)sc2cc(O)ccc12 [Raloxifene]", "drug sensitivity score": 0}

---

- Tested on: DU-4475
- assay.method.text: normalised viability (% of control), CellTiter-Blue; higher = more viable cells (about 100 = DMSO control)
- measurement.parameters: incubation time: 72 h
Listing of entries alongside the reported normalised viability.

{"compound": "CC(C)(C)c1cc(NC(=O)Nc2ccc(-c3cn4c(n3)sc3cc(OCCN5CCOCC5)ccc34)cc2)no1 [Quizartinib] (30 nM)", "measured.on": "DU-4475", "units.symbol": "%", "normalised viability": 109}
{"compound": "CC[C@@]1(O)C(=O)OCc2c1cc1n(c2=O)Cc2cc3ccccc3nc2-1 [Camptothecin] (150 nM)", "measured.on": "DU-4475", "units.symbol": "%", "normalised viability": 13.9}
{"compound": "CC(=O)O[C@H]1C(=O)[C@@]2(C)[C@H]([C@H](OC(=O)c3ccccc3)[C@]3(O)C[C@H](OC(=O)[C@H](O)[C@@H](NC(=O)c4ccccc4)c4ccccc4)C(C)=C1C3(C)C)[C@]1(OC(C)=O)CO[C@@H]1C[C@@H]2O [Paclitaxel] (30 nM)", "measured.on": "DU-4475", "units.symbol": "%", "normalised viability": 39.6}
{"compound": "c1ccc(C2CN3CCSC3=N2)cc1 (stereo not given) [Tetramisole] (300 nM)", "measured.on": "DU-4475", "units.symbol": "%", "normalised viability": 98.6}
{"compound": "COc1cccc2c1C(=O)c1c(O)c3c(c(O)c1C2=O)C[C@@](O)(C(C)=O)C[C@@H]3O[C@H]1C[C@H](N)[C@H](O)[C@H](C)O1 [Daunorubicin] (30 nM)", "measured.on": "DU-4475", "units.symbol": "%", "normalised viability": 64.7}
